This collection of values is drawn from the RNAGym collection of RNA variant scans (doi:10.1073/pnas.2313332121).

B1: TPR t1 (parent)
chain: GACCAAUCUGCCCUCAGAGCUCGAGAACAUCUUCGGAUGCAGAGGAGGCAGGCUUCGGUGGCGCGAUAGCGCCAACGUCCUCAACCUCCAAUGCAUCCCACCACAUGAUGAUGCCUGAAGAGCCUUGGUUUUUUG

- Variants of: B1
- ASSAY SUMMARY: polymerase ribozyme fitness, log enrichment relative to wild type (log ratio); higher = more active; in vitro selection for triplet polymerase activity
Classification field: enter MET for polymerase ribozyme fitness (log ratio) values not below -3, NOT MET for values below it.

# input // inclusive: polymerase ribozyme fitness (log ratio) at least -3? input: G63A U78C A95G
# output MET

More entries:
# input # check: polymerase ribozyme fitness (log ratio) of C98U C102A is greater than or equal to -3
# output NOT MET

# input Check the entry C11U G42C C53A : does polymerase ribozyme fitness (log ratio) equal or exceed -3?
# output MET

# input Identify whether the reported polymerase ribozyme fitness (log ratio) of the following variant is -3 or greater: C56G C82U A91C U116C
# output MET

# input Evaluate A2U A16G A27U A46G G60U U106A G110A : polymerase ribozyme fitness (log ratio) at minimum -3?
# output NOT MET
